Below is a list of entries, each paired with its recorded log10(half-life) value.
method.summary: Half-lives of hydrolysis of the prodrugs in human serum
applied.conditions: Half-life of hydrolysis, Serum
metric.name: log10(half-life) (log10 of the value in h)

{"columns": ["molecule", "log10(half-life)"],
 "data": [
  ["COCCOCC(=O)O[C@@H](C[C@H](Cc1ccccc1)NC(=O)[C@@H](NC(=O)N(C)Cc1csc(C(C)C)n1)C(C)C)[C@H](Cc1ccccc1)NC(=O)OCc1cncs1", 1.38],
  ["COC(=O)COCC(=O)OCC1CCC(n2ccc(N)nc2=O)O1 (stereo not drawn)", -1.00],
  ["CC(C)OC(=O)COCC(=O)Nc1ccn(C2CCC(CO)O2)c(=O)n1 (stereo not drawn)", 0.53],
  ["COCCOCC(=O)O[C@H](CN1CC[C@H]2CCCC[C@H]2[C@H]1C(=O)NC(C)(C)C)[C@H](Cc1ccccc1)NC(=O)[C@H](CC(N)=O)NC(=O)c1ccc2ccccc2n1", 1.20],
  ["O=C(O)COCC(=O)OCC1CCC(n2cnc3c(=O)[nH]cnc32)O1 (stereo not drawn)", -1.18]
]}

---

Listed below: log10 half-life values for each entry.
method.summary: Half-lives of hydrolysis of the prodrugs in phosphate buffer at pH 7.4
applied.conditions: pH 7.4, Half-life of hydrolysis, Buffer, phosphate buffer at ph 7.4
metric.name: log10 half-life (log10 of the value in h)

{"columns": ["compound", "log10 half-life"],
 "data": [
  ["CC(C)c1nc(CN(C)C(=O)N[C@H](C(=O)N[C@@H](Cc2ccccc2)C[C@H](OC(=O)COCCOCCO)[C@H](Cc2ccccc2)NC(=O)OCc2cncs2)C(C)C)cs1", 1.98],
  ["CC(C)(C)NC(=O)[C@@H]1[C@@H]2CCCC[C@@H]2CCN1C[C@@H](OC(=O)COCCOCCO)[C@H](Cc1ccccc1)NC(=O)[C@H](CC(N)=O)NC(=O)c1ccc2ccccc2n1", 0.49],
  ["CC(C)(C)OC(=O)COCC(=O)Nc1ccn(C2CCC(CO)O2)c(=O)n1 (stereo not shown)", 1.20],
  ["COc1ccc(/C=C\\c2cc(OC)c(OC)c(OC)c2)cc1OC(=O)COCC(=O)OC(C)(C)C", 0.93],
  ["COCCOCC(=O)O[C@H](CN1CC[C@H]2CCCC[C@H]2[C@H]1C(=O)NC(C)(C)C)[C@H](Cc1ccccc1)NC(=O)[C@H](CC(N)=O)NC(=O)c1ccc2ccccc2n1", 0.51],
  ["CN(C)CCOCCOC(=O)COCC(=O)OCC1CCC(n2cnc3c(=O)[nH]cnc32)O1 (stereo not shown)", 0.54],
  ["COCCOCCOCC(=O)Nc1ccn(C2CCC(COC(=O)COCCOCCOC)O2)c(=O)n1 (stereo not shown)", 1.15],
  ["CC(C)OC(=O)COCC(=O)Nc1ccn(C2CCC(CO)O2)c(=O)n1 (stereo not shown)", 1.26],
  ["CC(C)OC(=O)COCC(=O)OCC1CCC(n2cnc3c(=O)[nH]cnc32)O1 (stereo not shown)", 1.00],
  ["COCCOCCOCC(=O)OCC1CCC(n2ccc(N)nc2=O)O1 (stereo not shown)", 1.38],
  ["CN(C)CCOCCOC(=O)COCC(=O)O[C@H](CN1CC[C@H]2CCCC[C@H]2[C@H]1C(=O)NC(C)(C)C)[C@H](Cc1ccccc1)NC(=O)[C@H](CC(N)=O)NC(=O)c1ccc2ccccc2n1", 0.85],
  ["COC(=O)COCC(=O)OCC1CCC(n2ccc(N)nc2=O)O1 (stereo not shown)", 1.00],
  ["COCCOCCOCC(=O)OCC(COC(=O)COCCOCCOC)OCn1cnc2c(=O)[nH]c(N)nc21", 1.00]
]}
